B1: ARL6IP1 (parent)
chain: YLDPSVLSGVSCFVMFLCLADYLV

Variants of: B1
Assay: protein stability index of a GFP-peptide fusion (GPS, HEK-293T) (PSI 1-6); higher = more stable;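 further: lentivirally expressed fusions sorted by FACS into six bins by GFP to DsRed ratio, PSI derived from sequencing read proportions per bin multiplied by bin number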
Conditions: c terminus: a fixed tail appended
experimental-endpoint: protein stability index
I only need the number, thanks.

variant-notation	experimental-endpoint	observed-value
V10H	protein stability index	2.26
V24I	protein stability index	3.52
M15G	protein stability index	4.04
F16K	protein stability index	1.74
S5H	protein stability index	3.5
P4N	protein stability index	2.9

Return protein stability index (reported value) for this variant: V14G 2.85

Complete the entry with protein stability index for L2F 3

Look up protein stability index of D3I and report it. 2.83

Entry G9S needs its protein stability index filled in; supply it. 2.12

Note down protein stability index recorded for M15R 2.59

Return protein stability index for the following variant: D21H 2.6

Tell me its protein stability index given S11P as the entry. 3.52
